Recorded measurements of IC50, one per entry
Test system: A549 cells
Assay: Resazurin cytotoxicity assay, A549, 72 h
Particulars: Homo sapiens, read-out: IC50(nM): A549

Molecule	IC50 (nM)
CN(C(=O)Oc1cc2c(c3ccccc13)[C@H](CCl)CN2C(=O)c1cc2cc(OCCCN3CCC3)ccc2[nH]1)[C@H]1CCS[Se]C1	60
COc1cc2cc(C(=O)N3C[C@@H](CCl)c4c3cc(OC(=O)N3CCN(C(=O)CCC(=O)N5CCN(C)CC5)[C@H]5CSSC[C@H]53)c3ccccc43)[nH]c2c(OC)c1OC [P-SS66C-CBI-TMI]	12
CN(C(=O)Oc1cc2c(c3ccccc13)[C@H](CCl)CN2C(=O)c1cc2cc(OCCCN3CCC3)ccc2[nH]1)[C@H]1CCSSC1	120

###

System: panel of 140 standard cancer cell lines
Assay: ProliFiler-140 cancer cell line screen (CellTiterGlo, 72 h)
Assay type: cell-based
Particulars: read-out: IC50 [M] (ProliFiler-140); NCI-H1581 (Lung)
Description: Incubations were performed for 72 h before automated viability readout with CellTiterGlo (Figure 8). End of Figure S11 (part 5 of 5): ProliFiler-140 cancer cell line screening for cytotoxicity of the prodrugs. 8-data-point dose response curves from CellTiter-Glo® viability readout. ProliFiler-140 cell line panel part V

Compound	Units	IC50
COc1cc2cc(C(=O)N3C[C@@H](CCl)c4c3cc(OC(=O)N3CCN(C(=O)CCC(=O)N5CCN(C)CC5)[C@H]5CSSC[C@H]53)c3ccccc43)[nH]c2c(OC)c1OC [P-SS66C-CBI-TMI]	M	4.7e-08

###

System: panel of 140 standard cancer cell lines
Assay: ProliFiler-140 cancer cell line screen (CellTiterGlo, 72 h)
Type: cell-based
Particulars: read-out: IC50 [M] (ProliFiler-140); K562 (Blood)

Compound	IC50 [M]
COc1cc2cc(C(=O)N3C[C@@H](CCl)c4c3cc(OC(=O)N3CCN(C(=O)CCC(=O)N5CCN(C)CC5)[C@H]5CSSC[C@H]53)c3ccccc43)[nH]c2c(OC)c1OC [P-SS66C-CBI-TMI]	1.29e-07

###

System: panel of 140 standard cancer cell lines
Assay: ProliFiler-140 cancer cell line screen (CellTiterGlo, 72 h)
Type: cell-based
Particulars: M-07e, read-out: IC50 [M] (ProliFiler-140), M07e (Blood)

Compound	Target Under Test	Units	IC50
COc1cc2cc(C(=O)N3C[C@@H](CCl)c4c3cc(OC(=O)N3CCN(C(=O)CCC(=O)N5CCN(C)CC5)[C@H]5CSSC[C@H]53)c3ccccc43)[nH]c2c(OC)c1OC [P-SS66C-CBI-TMI]	panel of 140 standard cancer cell lines	M	3.25e-08

###

Tested on: panel of 140 standard cancer cell lines
Assay: ProliFiler-140 cancer cell line screen (CellTiterGlo, 72 h)
Assay type: cell-based
Particulars: read-out: IC50 [M] (ProliFiler-140); PC-9 (Lung)
Measurement Name: IC50 (M)

Compound	Target Under Test	Measurement Name	Endpoint Value
COc1cc2cc(C(=O)N3C[C@@H](CCl)c4c3cc(OC(=O)N3CCN(C(=O)CCC(=O)N5CCN(C)CC5)[C@H]5CSSC[C@H]53)c3ccccc43)[nH]c2c(OC)c1OC [P-SS66C-CBI-TMI]	panel of 140 standard cancer cell lines	IC50	1.41e-08
